# PROTOCOL: Oral bioavailability in male ICR mouse at 10 mg/kg measured upto 24 hrs by LC-MS/MS analysis
# Format: ADME, organism-based
# MEASUREMENT_CONDITIONS: in vivo
ATTRIBUTE_MEASURED: bioavailability (%)

[
  {
    "MOLECULE": "[2H]C([2H])([2H])NC1=NC(=O)[C@]2(CCc3ncccc32)c2cc(C(C)(F)F)ccc21",
    "bioavailability (%)": 132
  },
  {
    "MOLECULE": "[2H]C([2H])([2H])NC1=NC(=O)[C@]2(CCc3ncccc32)c2cc(C(F)(F)F)ccc21",
    "bioavailability (%)": 97
  }
]

----------
# PROTOCOL: Half life in male ICR mouse at 10 mg/kg, po measured upto 24 hrs by LC-MS/MS analysis
# Assay type: ADME, organism-based
# MEASUREMENT_CONDITIONS: in vivo
ATTRIBUTE_MEASURED: half-life (h)

[
  {
    "MOLECULE": "[2H]C([2H])([2H])NC1=NC(=O)[C@]2(CCc3ncccc32)c2cc(C(C)(F)F)ccc21",
    "RECORDED_VALUE": 2.37
  },
  {
    "MOLECULE": "[2H]C([2H])([2H])NC1=NC(=O)[C@]2(CCc3ncccc32)c2cc(C(F)(F)F)ccc21",
    "RECORDED_VALUE": 2.19
  }
]

----------
Readings of IC50 for the listed molecules
# ASSAY_SYSTEM: Voltage-gated inwardly rectifying potassium channel KCNH2 (Homo sapiens, UniProt Q12809)
# Sequence (Q12809 whole entry): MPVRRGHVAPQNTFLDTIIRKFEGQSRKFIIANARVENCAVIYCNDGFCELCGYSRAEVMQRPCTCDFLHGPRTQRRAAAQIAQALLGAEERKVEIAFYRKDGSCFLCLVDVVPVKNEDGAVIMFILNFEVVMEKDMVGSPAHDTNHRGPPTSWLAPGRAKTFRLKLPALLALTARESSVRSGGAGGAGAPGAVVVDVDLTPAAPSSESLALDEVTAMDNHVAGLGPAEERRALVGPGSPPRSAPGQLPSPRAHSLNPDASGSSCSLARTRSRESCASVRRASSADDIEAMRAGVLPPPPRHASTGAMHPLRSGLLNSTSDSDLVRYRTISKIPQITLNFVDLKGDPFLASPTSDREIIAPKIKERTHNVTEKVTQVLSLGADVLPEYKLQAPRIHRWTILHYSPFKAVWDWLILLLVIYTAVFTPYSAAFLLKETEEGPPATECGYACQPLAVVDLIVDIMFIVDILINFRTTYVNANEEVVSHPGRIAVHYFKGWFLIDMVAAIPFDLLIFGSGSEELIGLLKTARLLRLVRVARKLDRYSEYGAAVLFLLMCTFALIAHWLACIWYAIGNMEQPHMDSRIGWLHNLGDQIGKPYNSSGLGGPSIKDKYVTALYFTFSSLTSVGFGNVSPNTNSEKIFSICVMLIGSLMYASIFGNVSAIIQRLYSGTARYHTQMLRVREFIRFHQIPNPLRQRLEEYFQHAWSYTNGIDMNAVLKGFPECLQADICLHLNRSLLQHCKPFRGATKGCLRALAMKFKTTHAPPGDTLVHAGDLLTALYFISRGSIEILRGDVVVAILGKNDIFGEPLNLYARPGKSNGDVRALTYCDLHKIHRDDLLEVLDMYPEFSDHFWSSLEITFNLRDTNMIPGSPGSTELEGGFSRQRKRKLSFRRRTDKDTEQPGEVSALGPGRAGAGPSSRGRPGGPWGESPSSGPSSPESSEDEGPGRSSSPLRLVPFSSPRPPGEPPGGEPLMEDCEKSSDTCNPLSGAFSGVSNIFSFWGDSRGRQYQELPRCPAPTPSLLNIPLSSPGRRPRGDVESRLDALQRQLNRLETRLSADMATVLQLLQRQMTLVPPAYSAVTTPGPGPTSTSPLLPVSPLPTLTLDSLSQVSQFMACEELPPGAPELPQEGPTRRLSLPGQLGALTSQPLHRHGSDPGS

[
  {
    "MOLECULE": "[2H]C([2H])([2H])NC1=NC(=O)[C@]2(CCc3ncccc32)c2cc(C(F)(F)F)ccc21",
    "RECORDED_VALUE": "> 40 µM"
  }
]

Consider the additional molecule presented here.
### Prompt What measured IC50 goes with `[2H]C([2H])([2H])NC1=NC(=O)[C@]2(CCc3ncccc32)c2cc(C(C)(F)F)ccc21` ?
### Response > 40 µM

----------
# PROTOCOL: Oral bioavailability in beagle dog at 10 mg/kg measured upto 24 hrs upto 24 hrs by LC-MS/MS analysis
# Format: ADME, organism-based, Canis lupus familiaris
# MEASUREMENT_CONDITIONS: beagle, in vivo
ATTRIBUTE_MEASURED: bioavailability (%)
Your answer is read as %, so omit the unit and give the number.

### Prompt What measured bioavailability goes with `[2H]C([2H])([2H])NC1=NC(=O)[C@]2(CCc3ncccc32)c2cc(C(F)(F)F)ccc21` ?
### Response 130

----------
# PROTOCOL: Oral bioavailability in male Sprague-Dawley rat at 10 mg/kg measured upto 24 hrs upto 24 hrs by LC-MS/MS analysis
# Assay type: ADME, organism-based
# MEASUREMENT_CONDITIONS: male, Sprague-Dawley, in vivo
ATTRIBUTE_MEASURED: bioavailability (%)
Your answer is read as %, so omit the unit and give the number.

### Prompt What measured bioavailability goes with `[2H]C([2H])([2H])NC1=NC(=O)[C@]2(CCc3ncccc32)c2cc(C(C)(F)F)ccc21` ?
### Response 135

----------
# PROTOCOL: Protein binding in mouse brain assessed as unbound fraction
# Type: ADME, tissue-based
ATTRIBUTE_MEASURED: fraction unbound

[
  {
    "MOLECULE": "[2H]C([2H])([2H])NC1=NC(=O)[C@]2(CCc3ncccc32)c2cc(C(F)(F)F)ccc21",
    "fraction unbound": 0.113
  },
  {
    "MOLECULE": "[2H]C([2H])([2H])NC1=NC(=O)[C@]2(CCc3ncccc32)c2cc(C(C)(F)F)ccc21",
    "fraction unbound": 0.148
  }
]

----------
# PROTOCOL: Volume of distribution at steady state in male ICR mouse at 10 mg/kg, po and 2 mg/kg, iv measured upto 24 hrs
# Assay type: ADME, organism-based
# MEASUREMENT_CONDITIONS: in vivo
ATTRIBUTE_MEASURED: Vdss (L/kg)

[
  {
    "MOLECULE": "[2H]C([2H])([2H])NC1=NC(=O)[C@]2(CCc3ncccc32)c2cc(C(C)(F)F)c(F)cc21",
    "MEASURE_UNIT": "L/kg",
    "Vdss": 1.15
  },
  {
    "MOLECULE": "[2H]C([2H])([2H])NC1=NC(=O)[C@]2(CCc3ncccc32)c2cc(C(C)(F)F)ccc21",
    "MEASURE_UNIT": "L/kg",
    "Vdss": 1.53
  },
  {
    "MOLECULE": "CNC1=NC(=O)C2(CCc3ncccc32)c2nc(C(F)(F)F)ccc21 (stereo not given)",
    "MEASURE_UNIT": "L/kg",
    "Vdss": 2.42
  },
  {
    "MOLECULE": "[2H]C([2H])([2H])NC1=NC(=O)C2(CCc3ncccc32)c2cc(C(F)(F)F)ccc21 (racemic)",
    "MEASURE_UNIT": "L/kg",
    "Vdss": 1.39
  },
  {
    "MOLECULE": "[2H]C([2H])([2H])NC1=NC(=O)[C@]2(CCc3ncccc32)c2cc(C3CC3)ccc21",
    "MEASURE_UNIT": "L/kg",
    "Vdss": 1.26
  }
]

[1] [2H]C([2H])([2H])NC1=NC(=O)[C@]2(CCc3ncccc32)c2cc(C(F)(F)F)ccc21
[2] [2H]C([2H])([2H])NC1=NC(=O)[C@]2(CCc3ncccc32)c2cc(C3CC3)c(F)cc21
[3] CNC1=NC(=O)C2(CCc3ccccc32)c2nc(C(F)(F)F)ccc21 (stereo not given)
### Prompt Order the 3 molecules from highest to lowest Vdss. Respond with the label ranking, as requested.
### Response 3, 1, 2

----------
Readings of half-life for the listed compounds
# PROTOCOL: Hepatic metabolic stability in human hepatocyte assessed as half life
# Type: ADME, cell-based
# MEASUREMENT_CONDITIONS: hepatocytes

[
  {
    "MOLECULE": "[2H]C([2H])([2H])NC1=NC(=O)[C@]2(CCc3ncccc32)c2cc(C(C)(F)F)ccc21",
    "half-life": "> 3.61 h"
  }
]

### Prompt What measured half-life goes with `[2H]C([2H])([2H])NC1=NC(=O)[C@]2(CCc3ncccc32)c2cc(C(F)(F)F)ccc21` ?
### Response > 3.61 h

----------
# PROTOCOL: Microsomal metabolic stability in human liver microsomes assessed as clearance
# Assay type: ADME, Microsome
# MEASUREMENT_CONDITIONS: read-out: CLH
ATTRIBUTE_MEASURED: CLint scaled

// below: answered compounds
[
  {
    "COMPOUND": "CNC1=NC(=O)C2(CCc3ncccc32)c2nc(C(F)(F)F)ccc21 (stereo unspecified)",
    "CLint scaled": "< 9.3 mL/min/kg"
  },
  {
    "COMPOUND": "CNC1=NC(=O)C2(CCc3ncccc32)c2cc(C(F)(F)F)ccc21 (racemic)",
    "CLint scaled": "< 9.3 mL/min/kg"
  },
  {
    "COMPOUND": "NC1=NC(=O)C2(CCc3ncccc32)c2cc(C(F)(F)F)ccc21 (racemic)",
    "CLint scaled": "< 9.6 mL/min/kg"
  },
  {
    "COMPOUND": "CNC1=NC(=O)C2(CCc3c(F)cccc32)c2nc(C(F)(F)F)ccc21 (stereo unspecified)",
    "CLint scaled": "13.4 mL/min/kg"
  }
]

### Prompt What measured CLint scaled goes with CNC1=NC(=O)C2(CCc3cc(F)ccc32)c2nc(C(F)(F)F)ccc21 (stereo unspecified) ?
### Response < 9.3 mL/min/kg

### Prompt And `COC1(C(=O)N2Cc3nc(Cl)nc(N[C@H](C)c4cc(N)cc(C(F)(F)F)c4)c3C2)CCOCC1` ?
### Response < 9.3 mL/min/kg

### Prompt And `[2H]C([2H])([2H])NC1=NC(=O)[C@]2(CCc3ncccc32)c2cc(C(F)(F)F)ccc21` ?
### Response < 9.3 mL/min/kg

### Prompt And CNC1=NC(=O)C2(CCc3ccccc32)c2nc(C(F)(F)F)ccc21 (stereo unspecified) ?
### Response < 9.3 mL/min/kg

### Prompt And `[2H]C([2H])([2H])NC1=NC(=O)[C@]2(CCc3ncccc32)c2cc(C3CC3)c(F)cc21` ?
### Response < 9.3 mL/min/kg

### Prompt And CNC1=NC(=O)C2(CCc3ncccc32)c2cc(C(C)(F)F)ccc21 (stereo unspecified) ?
### Response < 9.3 mL/min/kg

### Prompt And `COc1ccc(-c2c(Nc3ccccn3)[nH]c3c(C4=CCCCC4)c(-c4ccccc4)nn3c2=O)cc1` ?
### Response < 9.3 mL/min/kg
